test: XTT assay, U87-CD4-CXCR4 cells; type: cell-based; settings: human

molecule: Cc1cc(/C=C2\SC(=S)N(Cc3ccccc3C(F)(F)F)C2=O)c(C)n1-c1ccc(O)c(C(=O)O)c1 [NSPD-12m]
CC90 at 3 days: 123 µM
